Test system: Primary Human Dermal Fibroblast (HDFs)
Assay: LDH cytotoxicity assay, HDF
Format: cell-based
Conditions: Table 16, summarized cell toxicity value, 24 hours treatment
Description: Primary Human Dermal Fibroblast (HDFs) and Human Keratinocyte (HaCaT) cells were selected for cytotoxicity and proliferation testing. HDFs were cultured in high glucose, no glutamine, no phenol red, Dulbecco's Modified Eagle Medium (DMEM) (GIBCO™). […] The secretion of lactate dehydrogenase (LDH) enzyme was used for quantitatively measuring cell damage and cytotoxicity. […]
EXPERIMENTAL_READOUT: Mammalian Cell Cytotoxicity, HDF (µM)
The reply should contain only the number, in µM.

In [3]: df
Out[3]:
                                   molecule              experimental_readout  recorded_measurement
0  CCCCCCCCCCCCCCCCCC[N+](C)(C)CCOCCO.[Br-] [Compound 39637_105543]  Mammalian Cell Cytotoxicity, HDF                   6.3

Tell us which Mammalian Cell Cytotoxicity, HDF value is on record for CCCCCCCCCCCCCCCCCC[N+](C)(C)CCOCCO.[Br-] [Compound 39637_109466] 6.3

Give the measured Mammalian Cell Cytotoxicity, HDF for "CCCCCCCCCCCC[N+](C)(C)CCOCCO.[Br-]" 100

Sourced from patent US20240358744A1
